test.name: Plasma protein binding by equilibrium dialysis, mouse
Format: in vitro ADME
run.conditions: CD-1, mouse, plasma, Mouse plasma, 1 μM, equilibrium dialysis 6 hours
measured.attribute: recovery at 6 h, 1 µM (%)
Field format: number, assumed %, no unit text.

[[record]]
compound = "CSc1ccc2[nH]cc(C[C@H]3CCCN3C)c2c1 [(R) I-1]"
measurement_unit = "%"
obs_value = 113


Now, please, on to the next compound.
Any idea what recovery at 6 h, 1 µM was measured for CC(=O)N1CCN(c2ccc(OCC3COC(Cn4ccnc4)(c4ccc(Cl)cc4Cl)O3)cc2)CC1 (centres unmarked) [Ketoconazole, reference compound] ?
109

* * *

test.name: Liver microsomes stability, mouse
Type: in vitro ADME
run.conditions: mouse liver microsomes
measured.attribute: Predicted hepatic CL (mL/min/kg)
Field format: number, assumed mL/min/kg, no unit text.

Some solved entries appear below for comparison.
[[record]]
molecule = "[2H]C([2H])(c1c[nH]c2ccc(OCCCCCN3C(=O)c4ccccc4C3=O)cc12)[C@H]1CCCN1C([2H])([2H])[2H] [(R) I-245]"
measured_attribute = "Predicted hepatic CL"
obs_value = 83.65

[[record]]
molecule = "COCCN1CCC[C@@H]1Cc1c[nH]c2ccc(OC)cc12 [(R) I-98]"
measured_attribute = "Predicted hepatic CL"
obs_value = 74.16


Now, please, on to the next molecule.
Any idea what Predicted hepatic CL was measured for O=C(O)Cc1ccccc1Nc1c(Cl)cccc1Cl [Diclofenac] ?
56.11

* * *

test.name: Plasma protein binding by equilibrium dialysis, human
Format: in vitro ADME
run.conditions: Human plasma, 1 μM, equilibrium dialysis 6 hours, 37° C.; read-out: % Bound (converted)
measured.attribute: fraction unbound at 6 h, 1 μM
Write the number on its own, no unit after it.

Any idea what fraction unbound at 6 h, 1 μM was measured for CSc1ccc2[nH]cc(C[C@H]3CCCN3C)c2c1 [(R) I-1] ?
0.16

* * *

test.name: Liver microsomes stability, mouse
Format: in vitro ADME
run.conditions: male; mouse liver microsomes; read-out: Scaled-up CLint
Procedure: The objective of this study was to estimate in vitro metabolic stability of exemplary compounds of Formula (I) or a pharmaceutically acceptable salt, solvate, and/or prodrug thereof in pooled human, male rat, and male mouse liver microsomes. The concentrations of compounds in reaction systems were evaluated by LC-MS/MS for estimating the stability in pooled human, male rat, and male mouse liver microsomes. The in vitro intrinsic clearances of test compounds were determined as well. […]
measured.attribute: CLint scaled at 2 μM (mL/min/kg)
Field format: number, assumed mL/min/kg, no unit text.

[[record]]
molecule = "[2H]C([2H])(c1c[nH]c2ccc(OCCCCCN3C(=O)c4ccccc4C3=O)cc12)[C@H]1CCCN1C([2H])([2H])[2H] [(R) I-245]"
measured_attribute = "CLint scaled at 2 μM"
obs_value = 1180


Now, please, on to the next molecule.
Any idea what CLint scaled at 2 μM was measured for COCCN1CCC[C@@H]1Cc1c[nH]c2ccc(OC)cc12 [(R) I-98] ?
421

* * *

test.name: Pharmacokinetic studies in rat (i.v.)
Assay type: in vivo
run.conditions: male, Sprague-Dawley, plasma, intravenous, dose per Dose column (1.32-2.09 mg/kg), 4 h, third animal (R09/R06/R03/R12), read-out: Plasma concentration
As shown below, each of these molecules has a reported concentration at 4 h value.
Field format: number, assumed ng/mL, no unit text.

Some solved entries appear below for comparison.
[[record]]
molecule = "[2H]C([2H])(c1c[nH]c2ccc(OCCCCCN3C(=O)C4CCCCC4C3=O)cc12)[C@H]1CCCN1C([2H])([2H])[2H] (mixture of isomers) [Rac (R) I-248]"
measurement_unit = "ng/mL"
obs_value = 17

[[record]]
molecule = "[2H]C([2H])(c1c[nH]c2ccc(OCCCCCN3C(=O)c4ccccc4C3=O)cc12)[C@H]1CCCN1C([2H])([2H])[2H] [(R) I-245]"
measurement_unit = "ng/mL"
obs_value = 48.3


Any idea what concentration at 4 h was measured for [2H]C([2H])(c1c[nH]c2ccc(OCCCCN3C(=O)c4ccccc4C3=O)cc12)[C@H]1CCCN1C([2H])([2H])[2H] [(R) I-244] ?
21.4

Any idea what concentration at 4 h was measured for COCCN1CCC[C@@H]1Cc1c[nH]c2ccc(OC)cc12 [(R) I-98] ?
2.23

src = patent US12606543B2
